Origin of measurements: patent US10562912B2

Exercise: for every item that follows, state its recorded IC50.
Test system: LNCaP
PROTOCOL NOTES: Cell growth inhibition assay, prostate cancer cell line LNCaP (medium with 10 ng/mL IL-6)
Assay type: cell-based
CONDITION SUMMARY: Homo sapiens, medium supplemented with 10 ng/mL of IL-6, 10,000 cells/well

Q: Complete the entry with IC50 for CC(C)Oc1cc(OC(F)(F)F)cc(C(C)(C)c2cc(Cl)cc(NC(=O)c3cc4cc(NS(=O)(=O)C5CCOC5)ccc4s3)c2)c1 (centres unmarked) [Example 204]
Ans: 0.095 µM

Q: Complete the entry with IC50 for CS(=O)(=O)Nc1cc2cc(C(=O)Nc3cc(Cl)cc(-c4ccc(F)cc4F)c3)sc2cc1F [Example 322]
Ans: 0.021 µM

Q: Complete the entry with IC50 for COc1cncc(S(=O)(=O)c2cccc(NC(=O)c3cc4ccc(NS(C)(=O)=O)cc4[nH]3)c2)c1 [Example 407]
Ans: > 10 µM

Q: Complete the entry with IC50 for COc1cc2cc(C(=O)Nc3cccc(C(C)(C)c4ccc(F)cc4)c3)[nH]c2cc1NS(C)(=O)=O [Example 3]
Ans: 1.1 µM

Q: Complete the entry with IC50 for Cn1nccc1-c1ccc(C(C)(C)c2cc(Cl)cc(NC(=O)c3cc4cc(NS(C)(=O)=O)ccc4s3)c2)cc1 [Example 159]
Ans: 0.16 µM

###

Test system: LNCaP
PROTOCOL NOTES: Cell growth inhibition assay, prostate cancer cell line LNCaP (medium with 10 ng/mL IL-6)
Assay type: cell-based
CONDITION SUMMARY: Homo sapiens, medium supplemented with 10 ng/mL of IL-6, 10,000 cells/well
REPORTED METRIC: IC50

Q: Complete the entry with IC50 for `CS(=O)(=O)Nc1ccc2cc(C(=O)Nc3cc(C(=O)N4CCCCC4)cc(-c4ccc(F)cc4F)c3)[nH]c2c1`
Ans: > 10 µM

Q: Complete the entry with IC50 for `COc1cc(OC(F)(F)F)cc(C(C)(C)c2cc(Cl)cc(NC(=O)c3cc4ccc(NS(C)(=O)=O)cc4[nH]3)c2)c1`
Ans: 0.083 µM

Q: Complete the entry with IC50 for `CC(C)(c1cccc(NC(=O)c2cc3cc(NS(C)(=O)=O)ccc3o2)c1)c1ccc(F)cc1F`
Ans: 3.8 µM

Q: Complete the entry with IC50 for `CN(C)S(=O)(=O)Nc1ccc2cc(C(=O)Nc3cccc(-c4ccccc4C(F)(F)F)c3)[nH]c2c1`
Ans: 3.2 µM

Q: Complete the entry with IC50 for `CC(C)Oc1cc(CN2CCN(C3COC3)CC2)cc(C(C)(C)c2cc(Cl)cc(NC(=O)c3cc4cc(NS(C)(=O)=O)ccc4s3)c2)c1`
Ans: 0.76 µM

###

Tested on: DU-145
PROTOCOL NOTES: Cell growth inhibition assay, prostate cancer cell line DU-145
Type: cell-based
CONDITION SUMMARY: Homo sapiens, DU-145 prostate cancer cell line
Exercise: for every item that follows, state its recorded IC50.
Could you give me the number in µM? Just the number is fine.

Q: Complete the entry with IC50 for `CC(C)Oc1cc(CN2CCN(c3noc(C(C)C)n3)CC2)cc(C(C)(C)c2cc(F)cc(NC(=O)c3cc4cc(NS(C)(=O)=O)ccc4s3)c2)c1`
Ans: 0.051

Q: Complete the entry with IC50 for `CC(C)Oc1cc(OC(F)(F)F)cc(C(C)(C)c2cc(I)cc(NC(=O)c3cc4cc(NS(C)(=O)=O)ccc4s3)c2)c1`
Ans: 0.011

Q: Complete the entry with IC50 for `CC(C)Oc1cc(OC(F)(F)F)cc(C(C)(C)c2cc(Cl)cc(NC(=O)c3cc4cc(N(CCN(C)C)S(C)(=O)=O)c(F)cc4s3)c2)c1`
Ans: 0.18

Q: Complete the entry with IC50 for `COc1ccc(C(C)(C)c2cc(Cl)cc(NC(=O)c3cc4cc(NS(C)(=O)=O)ccc4s3)c2)c(OC)c1`
Ans: 0.17

Q: Complete the entry with IC50 for `CC(C)Oc1cc(OC(F)(F)F)cc(C(C)(C)c2cc(Cl)cc(NC(=O)c3cc4cc(N(C)S(C)(=O)=O)c(F)cc4s3)c2)c1`
Ans: 0.002

Q: Complete the entry with IC50 for `COc1ccc(C(C)(C)c2cc(Cl)cc(NC(=O)c3cc4cc(NS(C)(=O)=O)ccc4s3)c2)cc1`
Ans: 0.061

Q: Complete the entry with IC50 for `COc1ccc(C(C)(C)c2cc(Cl)cc(NC(=O)c3cc4cc(NS(C)(=O)=O)c(Cl)cc4s3)c2)cc1`
Ans: 0.005

###

System: DU-145
PROTOCOL NOTES: Cell growth inhibition assay, prostate cancer cell line DU-145
Format: cell-based
CONDITION SUMMARY: Homo sapiens, DU-145 prostate cancer cell line
REPORTED METRIC: IC50

Q: Complete the entry with IC50 for `CC(C)(c1cc[nH]c1)c1cc(Cl)cc(NC(=O)c2cc3cc(NS(C)(=O)=O)ccc3s2)c1`
Ans: > 1.1 µM

Q: Complete the entry with IC50 for `CC(C)Oc1cc(OC(F)(F)F)cc(C(C)(C)c2cc(Cl)cc(NC(=O)c3cc4c(N5CCOCC5)c(NS(C)(=O)=O)ccc4s3)c2)c1`
Ans: > 1.1 µM

Q: Complete the entry with IC50 for `CS(=O)(=O)Nc1cc2cc(C(=O)Nc3cc(Cl)cc(Oc4cc(O)cc(Cl)c4)c3)sc2cc1Cl`
Ans: > 1.1 µM

###

System: HEL92.1.7
PROTOCOL NOTES: Cell growth inhibition assay, blood cancer cell line HEL92.1.7
Format: cell-based
CONDITION SUMMARY: Homo sapiens, HEL 92.1.7, HEL92.1.7 blood cancer cell line
Please respond with YES when measured IC50 is strictly beneath 0.3 µM, and with NO in all other cases.

Q: Does this molecule meet the criterion IC50 < 0.3 µM? `CC(C)(c1cc(Cl)cc(NC(=O)c2cc3cc(NS(C)(=O)=O)ccc3s2)c1)c1cc(OC(F)(F)F)cc(OC(F)(F)C(F)F)c1`
Ans: YES

Q: Does this molecule meet the criterion IC50 < 0.3 µM? `C=CS(=O)(=O)Nc1ccc2sc(C(=O)Nc3cc(Cl)cc(C(C)(C)c4cc(OC(C)C)cc(OC(F)(F)F)c4)c3)cc2c1`
Ans: NO

Q: Does this molecule meet the criterion IC50 < 0.3 µM? `CN(c1cc(Cl)cc(NC(=O)c2cc3cc(NS(C)(=O)=O)ccc3s2)c1)c1ccc(F)cc1F`
Ans: NO

Q: Does this molecule meet the criterion IC50 < 0.3 µM? `COc1cc(OC(F)(F)F)cc(C(C)(C)c2cccc(NC(=O)c3cc4ccc(NS(C)(=O)=O)cc4[nH]3)c2)c1`
Ans: NO

Q: Does this molecule meet the criterion IC50 < 0.3 µM? O=C(Nc1cc(Cl)cc(-c2ccc(F)cc2F)c1)c1cc2cc(NS(=O)(=O)C3CCOC3)c(F)cc2s1 (centres unmarked)
Ans: YES

Q: Does this molecule meet the criterion IC50 < 0.3 µM? `CC(C)(c1ccc(Br)cc1)c1cc(Cl)cc(NC(=O)c2cc3cc(NS(C)(=O)=O)ccc3s2)c1`
Ans: YES

Q: Does this molecule meet the criterion IC50 < 0.3 µM? `COc1cc(OC(F)(F)F)cc(C(C)(C)c2cc(Br)cc(NC(=O)c3cc4cnc(NS(C)(=O)=O)cc4[nH]3)c2)c1`
Ans: NO

Q: Does this molecule meet the criterion IC50 < 0.3 µM? `CC(C)Oc1cc(OC(F)(F)F)cc(C(C)(C)c2cc(Cl)cc(NC(=O)c3cc4cc(NS(C)(=O)=O)ncc4s3)c2)c1`
Ans: YES

Q: Does this molecule meet the criterion IC50 < 0.3 µM? `CN(c1ccc(Cl)cc1)c1cc(Cl)cc(NC(=O)c2cc3cc(NS(C)(=O)=O)ccc3s2)c1`
Ans: YES

Q: Does this molecule meet the criterion IC50 < 0.3 µM? `CC(C)(c1cc(Cl)cc(NC(=O)c2cc3cc(NS(C)(=O)=O)ccc3s2)c1)c1cc(OCCN2CCOCC2)cc(OC(F)(F)F)c1`
Ans: YES

Q: Does this molecule meet the criterion IC50 < 0.3 µM? `CS(=O)(=O)Nc1ccc2sc(C(=O)Nc3cc(Br)cc(S(=O)(=O)N4CCc5c(F)cc(F)cc5C4)c3)cc2c1`
Ans: NO

Q: Does this molecule meet the criterion IC50 < 0.3 µM? `CC(C)(c1cc(Cl)cc(NC(=O)c2cc3cc(NS(C)(=O)=O)ccc3s2)c1)n1ncccc1=O`
Ans: NO

Q: Does this molecule meet the criterion IC50 < 0.3 µM? `CC(C)Oc1cc(Br)cc(C(C)(C)c2cc(Cl)cc(NC(=O)c3cc4cc(NS(C)(=O)=O)ccc4s3)c2)c1`
Ans: YES

Q: Does this molecule meet the criterion IC50 < 0.3 µM? `COc1cc(OC(F)(F)F)cc(C(C)(C)c2cc(Br)cc(NC(=O)c3cc4cc(NS(C)(=O)=O)ccc4s3)c2)c1`
Ans: YES

Q: Does this molecule meet the criterion IC50 < 0.3 µM? `Cn1cc(Cc2cc(OC(F)(F)C(F)F)cc(C(C)(C)c3cc(Cl)cc(NC(=O)c4cc5cc(NS(C)(=O)=O)ccc5s4)c3)c2)cn1`
Ans: YES

Q: Does this molecule meet the criterion IC50 < 0.3 µM? `CC(C)Oc1cc(N2CCOCC2)cc(C(C)(C)c2cc(Cl)cc(NC(=O)c3cc4cc(NS(C)(=O)=O)ccc4s3)c2)c1`
Ans: YES

Q: Does this molecule meet the criterion IC50 < 0.3 µM? CC(C)Oc1cc(OC(F)(F)F)cc(C(C)(C)c2cc(Cl)cc(NC(=O)c3cc4cc(NS(=O)(=O)C5CCOC5)ccc4s3)c2)c1 (centres unmarked)
Ans: YES

Q: Does this molecule meet the criterion IC50 < 0.3 µM? `CS(=O)(=O)Nc1ccc2cc(C(=O)Nc3cc(Br)cc(-c4ccc(F)cc4F)c3)[nH]c2c1`
Ans: NO

Q: Does this molecule meet the criterion IC50 < 0.3 µM? `CN(c1ccc2cc(C(=O)Nc3cccc(-c4ccc(F)cc4F)c3)[nH]c2c1)S(C)(=O)=O`
Ans: NO

Q: Does this molecule meet the criterion IC50 < 0.3 µM? `CCOc1cc(OC(F)(F)F)cc(C(C)(C)c2cc(Br)cc(NC(=O)c3cc4ccc(NS(C)(=O)=O)cc4[nH]3)c2)c1`
Ans: YES

Q: Does this molecule meet the criterion IC50 < 0.3 µM? `CC(C)Oc1cc(N2CCN(C)CC2)cc(C(C)(C)c2cc(Cl)cc(NC(=O)c3cc4cc(NS(C)(=O)=O)ccc4s3)c2)c1`
Ans: NO

Q: Does this molecule meet the criterion IC50 < 0.3 µM? `CC(C)Oc1cc(Cl)cc(C(C)(C)c2cc(Cl)cc(NC(=O)c3cc4cc(NS(C)(=O)=O)ccc4s3)c2)c1`
Ans: YES

Q: Does this molecule meet the criterion IC50 < 0.3 µM? `CC(C)(c1ccccc1)c1cc(Cl)cc(NC(=O)c2cc3cc(NS(C)(=O)=O)ccc3s2)c1`
Ans: YES
